- MEASURED TARGET: MAGL (Mus musculus)
- Construct: Proteomes (mouse brain membrane fraction or cell lysates); from tissue; host or cells: mouse brain membrane fraction (or cell lysates, not specified)
- Sequence (O35678 whole entry): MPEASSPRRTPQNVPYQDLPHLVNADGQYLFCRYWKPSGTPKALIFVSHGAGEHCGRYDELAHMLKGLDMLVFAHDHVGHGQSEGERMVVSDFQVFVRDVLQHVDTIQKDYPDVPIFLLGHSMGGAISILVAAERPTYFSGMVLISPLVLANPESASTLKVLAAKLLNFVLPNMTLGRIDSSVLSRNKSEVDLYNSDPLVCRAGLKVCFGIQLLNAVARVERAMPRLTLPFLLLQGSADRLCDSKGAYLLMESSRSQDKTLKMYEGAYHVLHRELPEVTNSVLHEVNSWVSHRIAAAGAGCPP
- PROTOCOL NOTES: In vitro competitive activity-based protein profiling (gel-based, FP-Rh or HT-01 probe)
- Assay type: biochemical
- STATED CONDITIONS: 10 μM inhibitor
- Experimental: In Vitro Competitive Activity-Based Protein Profiling. Proteomes (mouse brain membrane fraction or cell lysates) (50 μL, 1.0 mg/mL total protein concentration) were preincubated with varying concentrations of inhibitors at 37° C. […] Following gel imaging, serine hydrolase activity was determined by measuring fluorescent intensity of gel bands corresponding to MAGL, ABHD6, FAAH, and PLA2G7 using ImageJ 1.43u software.
Each entry below lists one item and its recorded inhibition at 10 µM value.

The following compounds have reported results that may help.
O=C(N1CCN(Cc2c(N3CCCC3)cccc2C(F)(F)F)CC1)n1cc(-c2ccccc2)cn1 [Example 109] ... 25 to 75%
O=C(N1CCCC1)n1cc(-c2ccc(-c3ccccc3Cl)cc2)cn1 [Example 108] ... < 25%
Cc1cc(-c2ccccc2)ccc1CN1CCN(C(=O)n2cc(C(=O)N3CCCC3)cn2)CC1 [Example 85] ... > 75%
O=C(c1cnn(C(=O)N2CCN(Cc3nccs3)CC2)c1)N1CCCCC1 [Example 74] ... < 25%
O=C(c1cnn(C(=O)N2CCN(Cc3ccncn3)CC2)c1)N1CCC1 [Example 90] ... < 25%

Determine its reported inhibition at 10 µM: O=C(NCc1ccc2ccccc2c1)n1cccn1 [Example 43]
25 to 75%

Look up and report measured inhibition at 10 µM for this entry: CS(=O)(=O)N1CCCN(C(=O)n2cc(C#N)cn2)CC1 [Example 178]
> 75%

Quick one: give measured inhibition at 10 µM for O=C(c1ccccc1)N1CCN(C(=O)n2cc(C(F)(F)F)cn2)CC1 [Example 153]
> 75%

Find the measured inhibition at 10 µM of CN(CCN(C)C(=O)n1cc(Cl)cn1)C(=O)c1ccccc1 [Example 194] and report it.
25 to 75%

Origin of the recorded values: patent US10093630B2
